Reported values: pKd for FABP4 (Homo sapiens, UniProt P15090), one per item.
The meaning of pKd here: minus log10 of the concentration in molar units.

Example entries and their recorded answers appear below.
[
  {
    "Molecule": "O=C(c1nc2ncccc2nc1O)N1CCCC1Cc1cccc(Cl)c1 (racemic) [Compound 1-32]",
    "pKd": 6.52
  },
  {
    "Molecule": "COc1cccc(CC2CCCN(C(=O)c3nc4ccccc4nc3O)C2)c1 (racemic) [Compound 1-85]",
    "pKd": 4.96
  },
  {
    "Molecule": "O=C(c1nc2ccccc2nc1O)N1CCCC1Cc1cccc(Cl)c1 (stereo not drawn) [Compound 1-99]",
    "pKd": 6.02
  },
  {
    "Molecule": "O=C(c1nc2ccc(C(F)(F)F)cc2nc1O)N1CCCC1Cc1ccc(Cl)c(Cl)c1 (stereo not drawn) [Compound 1-164]",
    "pKd": 6.26
  },
  {
    "Molecule": "O=C(c1nc2ccccc2nc1O)N1CCCC1Cc1cccc(F)c1 (racemic) [Compound 1-51]",
    "pKd": 5.74
  }
]

Input line: Form field: reported pKd of O=C(c1nc2ccccc2nc1O)N1CCCC1Cc1ccccc1F (stereo not drawn) [Compound 1-153]
Output line: 5.54

Input line: Can you check COc1ccc(CCN(C)C(=O)c2nc3ccccc3nc2O)cc1OC [Compound 1-141] next?
Output line: 4.58

Input line: What about this molecule? O=C(c1nc2ccccc2nc1O)N1CCCCC1Cc1cccc(C(F)(F)F)c1 (racemic) [Compound 1-75]
Output line: 6.01

Input line: Another molecule to check: CN(CCc1ccccc1)C(=O)c1nc2ccccc2nc1O [Compound 1-139]
Output line: 4.90
